# systemUnderTest: FKBP12 (Homo sapiens)
# Construct: His (6xHis); made in house; host or cells: E. coli BL21-AI
# Sequence (P62942 whole entry): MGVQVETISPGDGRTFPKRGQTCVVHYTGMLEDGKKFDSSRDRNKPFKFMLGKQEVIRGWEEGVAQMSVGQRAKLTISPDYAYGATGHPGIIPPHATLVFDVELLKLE
# assayText: ELISA screening of candidates for the chaperone binding portion (FKBP12)
# condition: Concentration 20 (μM/well) biotin-labeled FKBP12; compound coated at 1 μM
Recorded Average Luminescence Concentration (CPS) values for a group of compounds are listed next.

{"columns": ["compound", "propertyLabel", "valueReported"],
 "data": [
  ["CCC(C)(C)C(=O)C(=O)N1CCCC[C@H]1C(=O)O[C@@H](CCc1ccc(OC)c(OC)c1)c1ccc(OCC(=O)O)cc1 [9-SR]", "Average Luminescence Concentration (CPS)", "1410 CPS"]
]}

# input Looking for the measured Average Luminescence Concentration (CPS) of CCC(C)(C)C(=O)C(=O)N1CCCC[C@H]1C(=O)O[C@@H](CCc1ccc(OC)c(OC)c1)c1ccc(OCC(=O)O)cc1 [9-SS] , can you help?
# output 579 CPS

# input Return reported Average Luminescence Concentration (CPS); argument: CCC(C)(C)C(=O)C(=O)N1CCCC[C@H]1C(=O)O[C@H](CCc1ccc(OC)c(OC)c1)c1ccc(OCC(=O)O)cc1 [9-RS]
# output 2006 CPS

# input Tell me the measured Average Luminescence Concentration (CPS) of CCC(C)(C)C(=O)C(=O)N1CCCC[C@H]1C(=O)O[C@@H](CCc1ccc(OC)c(OC)c1)c1ccc(OCC(=O)O)cc1 [9-RR] , please.
# output 371 CPS
